Listed below: selectivity ratio values for each entry.
# protocol_details: Selectivity index, ratio of CC50 for cytotoxicity against human HepG2 cells to MIC for antimycobacterial activity against drug susceptible Mycobacterium […]
# Assay type: toxicity, cell-based
# recorded_conditions: read-out: Selectivity Index

| smiles_str | selectivity ratio |
| --- | --- |
| C/C(=N\NC(=O)c1ccncc1)C(=O)Nc1ccc(Br)cc1 | > 3.12 |
| C/C(=N\NC(=O)c1ccncc1)C(=O)Nc1cccc(Cl)c1 | > 12.5 |
| C/C(=N\NC(=O)c1ccncc1)C(=O)Nc1ccc(C(F)(F)F)cc1 | > 12.5 |
| C/C(=N\NC(=O)c1ccncc1)C(=O)Nc1ccc(Cl)cc1 | > 3.12 |
| C/C(=N\NC(=O)c1ccncc1)C(=O)Nc1ccc(I)cc1 | > 12.5 |
| C/C(=N\NC(=O)c1ccncc1)C(=O)Nc1ccc(F)cc1 | > 625 |
| C/C(=N\NC(=O)c1ccncc1)C(=O)O | > 3.12 |
| C/C(=N\NC(=O)c1ccncc1)C(=O)Nc1cc(Cl)cc(Cl)c1 | > 1.56 |
| C/C(=N\NC(=O)c1ccncc1)C(=O)Nc1ccc(OC(F)(F)F)cc1 | > 12.5 |
| C/C(=N\NC(=O)c1ccncc1)C(=O)Nc1ccc(Cl)c(Cl)c1 | > 3.12 |
